Test: PC12 cell viability, direct effect of compound
Settings: rat
MEASURE: viability at 24 h, 75 μM

{"COMPOUND": "NCCc1cc(O)c(O)cc1O [6-OHDA, 6-hydroxydopamine, reference compound]", "MEASURE": "viability at 24 h, 75 μM", "RESULT": "~50%"}

Value source: paper PMC6250127
